# System: BROTE: downy brome (Bromus tectorum)
# assay.comment: Post-emergent Test III, herbicidal activity in wheat and barley
# Format: in vivo
# condition.details: Bromus tectorum, post-emergence, 504 h; 35 g ai/ha; read-out: Visual Growth Reduction (%) 21 Days After Application BROTE
# Lookup of reported pest or weed control at 35 g/ha keyed by entry

Solved entries (count: 2):
[[record]]
smiles_representation = "Nc1cc(-c2ccc(Br)c(F)c2F)nc(C(=O)O)c1Cl"
experimental_result = "45 to 59%"

[[record]]
smiles_representation = "N#Cc1ccc(-c2nc(C(=O)O)c(Cl)c(N)c2F)cc1"
experimental_result = "0 to 29%"


q: // Input: "C=Cc1c(C(=O)O)nc(-c2ccc(Cl)c(F)c2)c(F)c1N" . Output its pest or weed control at 35 g/ha only.
a: 0 to 29%

###

# Tested on: Key Grass and Sedge Weeds as well as Grass Crops
# assay.comment: Post-emergent Test II herbicidal activity (Table 6)
# Type: in vivo
# condition.details: Triticum aestivum, post-emergence, 336 h, TRZSS (wheat), application rate 70 g ai/ha, read-out: Visual Growth Reduction (%) 14 Days After Application, TRZSS
test.readout: pest or weed control at 70 g/ha

[[record]]
smiles_representation = "Nc1c(Cl)c(C(=O)O)nc(-c2ccc(Br)c(F)c2)c1Cl"
experimental_result = "60 to 74%"

[[record]]
smiles_representation = "C=Cc1c(N)nc(-c2ccc(F)c(F)c2F)nc1C(=O)OC"
experimental_result = "0 to 29%"

[[record]]
smiles_representation = "Nc1c(Cl)c(C(=O)O)nc(-c2ccc(I)c(F)c2)c1Cl"
experimental_result = "60 to 74%"

[[record]]
smiles_representation = "Nc1cc(-c2ccc(I)cc2F)nc(C(=O)O)c1Cl"
experimental_result = "45 to 59%"


// moving on: another record for pest or weed control at 70 g/ha
q: Assign pest or weed control at 70 g/ha to the following record: "COC(=O)c1nc(-c2cc(F)c(Br)cc2F)cc(N)c1Cl"
a: 60 to 74%

###

# Test system: Key Grass and Sedge Weeds as well as Grass Crops
# assay.comment: Post-emergent Test II herbicidal activity (Table 6)
# Assay type: in vivo
# condition.details: post-emergence, 336 h, SETFA: giant foxtail (Setaria faberi), application rate 140 g ai/ha, read-out: Visual Growth Reduction (%) 14 Days After Application, SETFA
Recorded pest or weed control at 140 g/ha by entry

Guide cases for pest or weed control at 140 g/ha, answers given:
[[record]]
smiles_representation = "COC(=O)c1nc(-c2ccc(OC(F)F)cc2)c(Cl)c(N)c1Cl"
target_of_assay = "Key Grass and Sedge Weeds as well as Grass Crops"
experimental_result = "0 to 29%"

[[record]]
smiles_representation = "COC(=O)c1nc(-c2cc(F)c(C#N)cc2F)nc(N)c1OC"
target_of_assay = "Key Grass and Sedge Weeds as well as Grass Crops"
experimental_result = "0 to 29%"


q: Report value: pest or weed control at 140 g/ha, system: Key Grass and Sedge Weeds as well as Grass Crops, molecule: "Nc1cc(-c2ccc(Br)cc2F)nc(C(=O)O)c1Cl"
a: 85 to 94%

q: // fetch pest or weed control at 140 g/ha; item: "Nc1c(Cl)c(C(=O)O)nc(-c2ccc(Br)c(F)c2)c1Cl" ; system: Key Grass and Sedge Weeds as well as Grass Crops
a: 60 to 74%

###

test.readout: melting point

[[record]]
smiles_representation = "COC(=O)c1nc(-c2cc(F)c(C(F)(F)F)cc2F)c(F)c(N)c1Cl"
test_readout = "melting point"
experimental_result = "124 to 126 °C"

[[record]]
smiles_representation = "Nc1c(Cl)c(C(=O)O)nc(-c2ccc(OC(F)(F)F)cc2)c1Cl"
test_readout = "melting point"
experimental_result = "141.9 to 143.1 °C"

[[record]]
smiles_representation = "COC(=O)c1nc(-c2ccc(C#N)cc2)nc(N)c1OC"
test_readout = "melting point"
experimental_result = "185.1 to 186.9 °C"


Shifting focus to the molecule that follows.
q: Please give the documented melting point of "COC(=O)c1nc(-c2ccc(I)c(F)c2F)nc(N)c1OC"
a: 169 to 170 °C

###

melting point listing for selected molecules.

Answered cases to consult:
[[record]]
molecule = "COC(=O)c1nc(-c2cc(F)c(Br)cc2F)c(F)c(N)c1Cl [Compound 51]"
test_readout = "melting point"
experimental_result = "153 to 154 °C"

[[record]]
molecule = "C#Cc1ccc(-c2nc(C(=O)O)c(Cl)c(N)c2F)c(F)c1 [Compound 108]"
test_readout = "melting point"
experimental_result = "165 to 175 °C (dec.)"


Now look at this entry.
q: Indicate the recorded melting point value for this molecule: C#Cc1ccc(-c2nc(C(=O)OC)c(Cl)c(N)c2F)cc1F [Compound 133]
a: 141 to 143 °C

###

pest or weed control at 140 g/ha: recorded values
# Tested on: Key Broadleaf Weed and Crop Species
# assay.comment: Post-emergent Test II herbicidal activity (Table 5)
# Type: in vivo
# condition.details: post-emergence, 336 h; AMARE: redroot pigweed (Amaranthus retroflexus); 140 g ai/ha; post-emergent; 14 days after application; read-out: Visual Growth Reduction (%) 14 Days After Application AMARE

[[record]]
compound = "C#Cc1ccc(-c2nc(N)c(OC)c(C(=O)OC)n2)cc1 [Compound 166]"
target_of_assay = "Key Broadleaf Weed and Crop Species"
experimental_result = "95 to 100%"


q: Please give the documented pest or weed control at 140 g/ha of C=Cc1c(C(=O)O)nc(-c2ccc(Br)cc2)c(F)c1N [Compound 117]
a: 95 to 100%

q: # return recorded pest or weed control at 140 g/ha for input COC(=O)c1nc(-c2ccc(OC(F)(F)F)cc2)nc(N)c1OC [Compound 30]
a: 0 to 29%

q: State, in one line, measured pest or weed control at 140 g/ha of Nc1c(F)c(-c2cc(F)c(I)cc2F)nc(C(=O)O)c1Cl [Compound 69]
a: 95 to 100%

q: Look up and report measured pest or weed control at 140 g/ha for this entry: COC(=O)c1nc(-c2ccc(OC(F)(F)F)cc2)c(Cl)c(N)c1Cl [Compound 170]
a: 0 to 29%

q: Give the reported value of pest or weed control at 140 g/ha for this record: Nc1cc(-c2c(F)cc(Br)c(F)c2F)nc(C(=O)O)c1Cl [Compound 162]
a: 95 to 100%

q: State, in one line, measured pest or weed control at 140 g/ha of COc1c(N)nc(-c2ccc(Br)c(F)c2)nc1C(=O)O [Compound 113]
a: 95 to 100%

q: Provide one value: measured pest or weed control at 140 g/ha of C=Cc1c(C(=O)OC)nc(-c2ccc(Br)cc2)c(F)c1N [Compound 57]
a: 95 to 100%

q: Entry COC(=O)c1nc(-c2cc(F)c(C#N)cc2F)cc(N)c1Cl [Compound 202] needs its pest or weed control at 140 g/ha filled in; supply it.
a: 95 to 100%

###

# Tested on: TRZSS: wheat, including spring and winter (Triticum aestivum)
# assay.comment: Post-emergent Test III, herbicidal activity in wheat and barley
# Assay type: in vivo
# condition.details: Triticum aestivum, post-emergence, 504 h; Table 9; 70 g ai/ha; post-emergent; 21 d; read-out: Visual Growth Reduction (%) 21 Days After Application TRZSS
Listed here: items and their measured pest or weed control at 70 g/ha.

Solved cases (2 shown):
[[record]]
compound = "Nc1cc(-c2ccc(C(F)(F)F)c(F)c2F)nc(C(=O)O)c1Cl [Compound 172]"
target_of_assay = "TRZSS: wheat, including spring and winter (Triticum aestivum)"
test_readout = "pest or weed control at 70 g/ha"
experimental_result = "75 to 84%"

[[record]]
compound = "COc1c(N)nc(-c2ccc(C(F)(F)F)c(F)c2F)nc1C(=O)O [Compound 76]"
target_of_assay = "TRZSS: wheat, including spring and winter (Triticum aestivum)"
test_readout = "pest or weed control at 70 g/ha"
experimental_result = "85 to 94%"


Please look at the following compound next.
q: Supply reported pest or weed control at 70 g/ha belonging to this compound: C#Cc1ccc(-c2nc(C(=O)O)c(C=C)c(N)c2F)cc1 [Compound 36]
a: 75 to 84%

###

A collection of compounds and their measured pest or weed control at 140 g/ha
# System: Key Grass and Sedge Weeds as well as Grass Crops
# assay.comment: Post-emergent Test II herbicidal activity (Table 6)
# Assay type: in vivo
# condition.details: Triticum aestivum, post-emergence, 336 h, TRZSS (wheat), application rate 140 g ai/ha, read-out: Visual Growth Reduction (%) 14 Days After Application, TRZSS

Example compounds with recorded pest or weed control at 140 g/ha:
[[record]]
smiles_representation = "C#Cc1ccc(-c2nc(C(=O)OC)c(C=C)c(N)c2F)cc1"
experimental_result = "0 to 29%"

[[record]]
smiles_representation = "COC(=O)c1nc(-c2ccc(I)cc2)c(C)c(N)c1Cl"
experimental_result = "45 to 59%"

[[record]]
smiles_representation = "C=Cc1c(N)nc(-c2ccc(C(F)(F)F)c(F)c2)nc1C(=O)OC"
experimental_result = "0 to 29%"

[[record]]
smiles_representation = "COC(=O)c1nc(-c2cccc(F)c2)c(F)c(N)c1Cl"
experimental_result = "0 to 29%"

[[record]]
smiles_representation = "COC(=O)c1nc(-c2ccc(I)c(F)c2)c(Cl)c(N)c1Cl"
experimental_result = "60 to 74%"

[[record]]
smiles_representation = "C#Cc1ccc(-c2nc(C(=O)O)c(Cl)c(N)c2Cl)cc1"
experimental_result = "60 to 74%"

[[record]]
smiles_representation = "C#Cc1ccc(-c2cc(N)c(Cl)c(C(=O)OC)n2)cc1"
experimental_result = "0 to 29%"

[[record]]
smiles_representation = "COc1c(N)nc(-c2ccc(Br)c(F)c2)nc1C(=O)O"
experimental_result = "75 to 84%"

[[record]]
smiles_representation = "N#Cc1ccc(-c2nc(C(=O)O)c(Cl)c(N)c2Cl)cc1"
experimental_result = "0 to 29%"

[[record]]
smiles_representation = "Nc1c(Cl)c(C(=O)O)nc(-c2ccc(Br)cc2)c1Cl"
experimental_result = "60 to 74%"


Could you now consider this next compound?
q: Return value of pest or weed control at 140 g/ha for input "COC(=O)c1nc(-c2cc(F)c(I)cc2F)c(F)c(N)c1Cl" , no commentary.
a: 95 to 100%
